Target: hCA IX (Homo sapiens, UniProt Q16790)
Construct: gene CA9; recombinant, transmembrane isoform
Experiment: stopped-flow CO2 hydration
Format: biochemical
Conditions: CO2 substrate, pH […] Hepes, […] °C, […] min preincubation
Text: stopped-flow CO2 hydration on hCA IX
metric: pKi
Friendly reminder that pKi comes from taking -log10 of the concentration in mol/L.

**Query** Would you mind telling me what pKi value was observed for `COc1ccc(-n2cc(CNC(=O)c3cccc(S(N)(=O)=O)c3)nn2)cc1` ?
**Result** 5.17

----------
Biological target: hCA IX (Homo sapiens, UniProt Q16790)
Construct: gene CA9; recombinant, transmembrane isoform
Assay: stopped-flow CO2 hydration
Type: biochemical
metric: Ki (nM)
Expressed in nM, but write only the number.

**Query** Would you mind telling me what Ki value was observed for `COc1ccc(C(=O)NCc2cn(-c3ccc(F)cc3)nn2)cc1S(N)(=O)=O` ?
**Result** 6820

**Query** Would you mind telling me what Ki value was observed for `NS(=O)(=O)c1cccc(C(=O)O)c1` ?
**Result** 9420

**Query** Would you mind telling me what Ki value was observed for `NS(=O)(=O)c1cccc(C(=O)NCc2cn(-c3cccc(F)c3)nn2)c1` ?
**Result** 7420

**Query** Would you mind telling me what Ki value was observed for `Cc1cccc(-n2cc(CNC(=O)c3cccc(S(N)(=O)=O)c3)nn2)c1C` ?
**Result** 6130

**Query** Would you mind telling me what Ki value was observed for `NS(=O)(=O)c1cc(C(=O)NCc2cn(-c3cccc(F)c3)nn2)ccc1F` ?
**Result** 30.8

**Query** Would you mind telling me what Ki value was observed for `NS(=O)(=O)c1cc(C(=O)O)ccc1Cl` ?
**Result** 8980

**Query** Would you mind telling me what Ki value was observed for `COc1ccc(-n2cc(CNC(=O)c3ccc(Cl)c(S(N)(=O)=O)c3)nn2)cc1` ?
**Result** 41.6

**Query** Would you mind telling me what Ki value was observed for `NS(=O)(=O)c1cc(C(=O)NCc2cn(-c3ccc(C(F)(F)F)cc3)nn2)ccc1Cl` ?
**Result** 34.6

**Query** Would you mind telling me what Ki value was observed for `COc1cc(-n2cc(CNC(=O)c3ccc(Cl)c(S(N)(=O)=O)c3)nn2)cc(OC)c1OC` ?
**Result** 212

**Query** Would you mind telling me what Ki value was observed for `C#CCNC(=O)c1ccc(OC)c(S(N)(=O)=O)c1` ?
**Result** 9220

**Query** Would you mind telling me what Ki value was observed for `NS(=O)(=O)c1cccc(C(=O)NCc2cn(-c3cccc([N+](=O)[O-])c3)nn2)c1` ?
**Result** 6920

**Query** Would you mind telling me what Ki value was observed for `Cc1ccc(-n2cc(CNC(=O)c3cccc(S(N)(=O)=O)c3)nn2)c(C)c1` ?
**Result** 226

**Query** Would you mind telling me what Ki value was observed for `COc1ccc(C(=O)NCc2cn(-c3ccc(C)cc3)nn2)cc1S(N)(=O)=O` ?
**Result** 526

**Query** Would you mind telling me what Ki value was observed for `C#CCNC(=O)c1ccc(F)c(S(N)(=O)=O)c1` ?
**Result** 816

**Query** Would you mind telling me what Ki value was observed for C#CCNC(=O)c1cccc(S(N)(=O)=O)c1 [4a, N-(prop-2-yn-1-yl)-3-sulfamoylbenzamide] ?
**Result** 9360

**Query** Would you mind telling me what Ki value was observed for `COc1ccc(C(=O)NCc2cn(-c3ccc(C)cc3C)nn2)cc1S(N)(=O)=O` ?
**Result** 93.8

**Query** Would you mind telling me what Ki value was observed for `C#CCNC(=O)c1ccc(Cl)c(S(N)(=O)=O)c1` ?
**Result** 447

**Query** Would you mind telling me what Ki value was observed for `COc1cc(-n2cc(CNC(=O)c3cccc(S(N)(=O)=O)c3)nn2)cc(OC)c1OC` ?
**Result** 4900

**Query** Would you mind telling me what Ki value was observed for `NS(=O)(=O)c1cc(C(=O)NCc2cn(-c3ccc(Br)cc3)nn2)ccc1F` ?
**Result** 71.5

**Query** Would you mind telling me what Ki value was observed for `COc1ccc(C(=O)NCc2cn(-c3ccccc3)nn2)cc1S(N)(=O)=O` ?
**Result** 703

**Query** Would you mind telling me what Ki value was observed for `Cc1ccc(-n2cc(CNC(=O)c3ccc(F)c(S(N)(=O)=O)c3)nn2)cc1` ?
**Result** 67.5

**Query** Would you mind telling me what Ki value was observed for `NS(=O)(=O)c1cc(C(=O)O)ccc1F` ?
**Result** 9570

**Query** Would you mind telling me what Ki value was observed for `COc1ccccc1-n1cc(CNC(=O)c2ccc(OC)c(S(N)(=O)=O)c2)nn1` ?
**Result** 768

**Query** Would you mind telling me what Ki value was observed for `N#Cc1cccc(-n2cc(CNC(=O)c3cccc(S(N)(=O)=O)c3)nn2)c1` ?
**Result** 3190

**Query** Would you mind telling me what Ki value was observed for `COc1ccc(C(=O)O)cc1S(N)(=O)=O` ?
**Result** 9670

**Query** Would you mind telling me what Ki value was observed for `NS(=O)(=O)c1cccc(C(=O)NCc2cn(-c3ccccc3)nn2)c1` ?
**Result** 7980

**Query** Would you mind telling me what Ki value was observed for `COc1ccc(-n2cc(CNC(=O)c3ccc(F)c(S(N)(=O)=O)c3)nn2)cc1` ?
**Result** 63.1

**Query** Would you mind telling me what Ki value was observed for `NS(=O)(=O)c1cc(C(=O)NCc2cn(-c3ccccc3)nn2)ccc1F` ?
**Result** 84.5

**Query** Would you mind telling me what Ki value was observed for `NS(=O)(=O)c1cc(C(=O)NCc2cn(-c3ccc(C(F)(F)F)cc3)nn2)ccc1F` ?
**Result** 235

**Query** Would you mind telling me what Ki value was observed for `N#Cc1cccc(-n2cc(CNC(=O)c3ccc(F)c(S(N)(=O)=O)c3)nn2)c1` ?
**Result** 67.9

**Query** Would you mind telling me what Ki value was observed for `NS(=O)(=O)c1cc(C(=O)NCc2cn(-c3ccccc3)nn2)ccc1Cl` ?
**Result** 84.4

**Query** Would you mind telling me what Ki value was observed for `COc1ccc(C(=O)NCc2cn(-c3ccc(Br)cc3)nn2)cc1S(N)(=O)=O` ?
**Result** 1870

Origin of values: paper PMC6598542
